- target_entity: T1, human interleukin 13 receptor subunit alpha 2 (IL-13RA2) (human, UniProt Q14627 27-380)
- T1 sequence (looked up): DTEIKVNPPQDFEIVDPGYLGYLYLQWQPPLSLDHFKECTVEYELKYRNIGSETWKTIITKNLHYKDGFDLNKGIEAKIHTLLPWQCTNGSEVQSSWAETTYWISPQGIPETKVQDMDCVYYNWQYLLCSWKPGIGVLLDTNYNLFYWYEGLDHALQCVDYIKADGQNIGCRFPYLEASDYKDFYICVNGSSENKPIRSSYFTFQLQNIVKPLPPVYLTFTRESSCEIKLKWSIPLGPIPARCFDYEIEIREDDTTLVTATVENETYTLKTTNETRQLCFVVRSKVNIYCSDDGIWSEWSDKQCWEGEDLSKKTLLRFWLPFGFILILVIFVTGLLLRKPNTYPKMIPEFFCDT
- method: cell-based or functional assay
Please respond with reported internalization Top (MFI), HEK-293/H IL-13RA2 cells for every item in the list.
Give bare numbers, in MFI.

binder	measurement
xi73A11E2 hIgG1 (antibody, V domains shown) VH: EVKLVESGGGLVKPGGSLKLSCAASGFTFSSYGMSWVRQTPEKRLEWVATISGGGSYTYYPDSVKGRFTISRDNARNNLYLQMNSLRSEDTALYYCARRDLRSAMDYWGQGTSVTVSS VL: DIVMTQSQKFMSTSVGDRVSVTCKASQNVDINVAWYQQKPGQSPKALIYSASYRYSGVPDRFTGSGSGTDFTLTISNVQSEDLAEFFCQQYNSYPLTFGGGTKLEIK	23500

For every record below, what is its internalization Top (MFI), HEK-293/H IL-13RA2 cells?
1. xi54A4F7 hIgG1 (antibody, V domains shown) VH: EVKLVESGGGLVKPGGSLKLSCAASGFTFSSYGMSWVRQTPEKRLEWVATISGGGSYTYYPDSVKGRFTISRDNAKNNLYLQMSSLRSEDTALYYCARRDLRSAMDHWGQGTSVTVSS VL: DIVMTQSQKFMSTSVGDRVSVTCRASQNVDINVAWYQQKPGQSPKSLIYSASYRYSGVPDRFTGSGSGTDFTLTISNVQSEDLAEYFCQQYNSYPLTFGGGTKLEIR
2. xi74B5E4 hIgG1 (antibody, V domains shown) VH: EVKLVESGGGLVKPGGSLRLSCAASGFTFSTYGMSWVRQTPEKRLEWVATISGGGSYTYYPDSVKGRFTISRDNAKNNLYLQMSSLRSEDTALYYCARRDLRSAMDYWGQGTSVTVSS VL: DIVMTQSQKFMSTSVGDRVSVTCKASQNVDINVAWYQQKPGQSPKALIYSASYRYSGVPDRFTGSGSGTDFTLTISNVQSEDLAEYFCQQYNTYPLTFGGGTKLEIK
3. xi62A8D8 hIgG1 (antibody, V domains shown) VH: EVKLVESGGGLVKPGGSLKLSCAASGFTFSSYGMSWVRQTPEKRLEWVATISGGGSYTYYPDSVKGRFTISRDNAKNNLYLQMSSLRSEDTALYYCARRDLRSAMDYWGQGTSVTVSS VL: DIVMTQSQKFMSTSVGDRVSVTCKASQNVDINVAWYQQKPGQSPKALIYSASYRYSGVPDRFTGSGSGTDFTLTISNVQSEDLAEFFCQQYNNYPLTFGGGTKLEIK
4. xi34A5G9 hIgG1 (antibody, V domains shown) VH: EVHLQQSGPELVKPGASVKISCKTSGYTFTEYTMHWVKQSHGKSLEWIGRINPNNGIAEYKQTFKDKATLAVDKSSSTAYMEFRSLTSEDSAVYYCARGEGYGYWFAYWGQGTLVTVSA VL: DIQMTQSPASLSASVGETVTITCRTSDNIYSYLAWYQQRQGKSPQLLVSNARTLAEGVPSRFSGSGSGTQFSLKINSLQPEDFGIYYCQHHSGTPFTFGSGTNLEIE
5. xi62F6A8 hIgG1 (antibody, V domains shown) VH: QVQIQQSGAELARPGASVMLSCKASGYTFTDYWMQWIKQRPGQGLEGIGAIYPGDGDTAYNQKFRGKATLTADKSSSTAYMQLNSLASEDSAVYFCARGATLLRPFPFWGQGTLVTVSA VL: DIVMTQSHKFMSTSVGDRVSITCKASQDVSTAVAWYQQKPGQSPKLLIYSASYRYAGVPDRFTGSGSGTDFTFTISSVQAEDLAVYSCQQHYSIPPTFGGGTKLEIK

### Response
[22800, 21600, 23300, 25700, 22300]

### Prompt Which internalization Top (MFI), HEK-293/H IL-13RA2 cells is reported for this binder? xi24G6D5 hIgG1 (antibody, V domains shown) VH: QVQLQQSGPELVKPGTSVKMSCKASGYTFTSNYIHWVKQRPGQGLEWIGWIYPGDGSIKYNEKFKGKTTLTADKSSSTVYMLLSSLTSEDSAIYFCAVLRRLDYWGQGTTLTVSS VL: DIVLTQSPATLSVTPGDSVSLSCRASQSISNNLHWYQQKSHESPRLLIKYASQSISGIPSRFSGSGSGTDFTLSINSVETEDFGMYFCQQSNSWPLTFGAGTKLELK
### Response 23700
